- System: Escherichia coli ATCC 25922
- Protocol notes: Minimal Inhibitory Concentration (MIC) determination, broth microdilution (CLSI M07-A10)
- Assay type: cell-based
- Run parameters: Escherichia coli, ATCC25922, strain Escherichia coli ATCC 25922, 18-24 hours at 35±2° C., lowest concentration for complete growth inhibition (no visible growth), read-out: Escherichia coli growth inhibition MIC
The threshold is 0.5 mg/L. Values of MIC beneath it are tagged t; values meeting or exceeding it are tagged f.

[
  {
    "Molecule": "O=C1COc2ncc(N3CC4(CC(NCC5Cc6c(c(F)c7[nH]c([C@H]8C[C@@H](O)CN8)nc7c6F)C5)C4)OC3=O)nc2N1 (stereo partly drawn)",
    "Assigned category": "f"
  },
  {
    "Molecule": "O=C(O)C(F)(F)F.O=C1COc2ncc(N3CC4(CCN(CC5Cc6c(c(F)c7[nH]c([C@@H]8CC(O)CCN8)nc7c6F)C5)CC4)OC3=O)nc2N1 (stereo partly drawn)",
    "Assigned category": "t"
  },
  {
    "Molecule": "Cn1c([C@@H]2C[C@@H](O)CN2)nc2c(F)c3c(c(F)c21)CC(CN1CCC2(CC1)CN(c1cnc4c(n1)NC(=O)CO4)C(=O)O2)C3.O=C(O)C(F)(F)F (stereo partly drawn)",
    "Assigned category": "t"
  },
  {
    "Molecule": "O=C1COc2ncc(N3CC4(CCN(CC5Cc6c(c(F)c7c(nnn7CCNC(=O)[C@H]7CCCN7)c6F)C5)CC4)OC3=O)nc2N1 (stereo partly drawn)",
    "Assigned category": "f"
  },
  {
    "Molecule": "CNCc1nc2c(F)c3c(c(F)c2[nH]1)CC(CN1CCC2(CC1)CN(c1cnc4c(n1)NC(=O)CO4)C(=O)O2)C3",
    "Assigned category": "t"
  }
]

* * *

- Tested on: Escherichia coli ATCC 25922
- Protocol notes: Minimal Inhibitory Concentration (MIC) determination, broth microdilution (CLSI M07-A10)
- Format: cell-based
- Run parameters: Escherichia coli, ATCC25922, strain Escherichia coli ATCC 25922, 18-24 hours at 35±2° C., lowest concentration for complete growth inhibition (no visible growth), read-out: Escherichia coli growth inhibition MIC

[
  {
    "Compound": "NCCn1nc2cc3c(c(F)c2n1)CC(CN1CCC2(CC1)CN(c1cnc4c(n1)NC(=O)CO4)C(=O)O2)C3 (stereo not shown) [Example 74]",
    "Units": "µg/mL",
    "MIC": 0.06
  },
  {
    "Compound": "NCCn1nnc2c3c(c(F)cc21)CC(CN1CCC2(CC1)CN(c1cnc4c(n1)NC(=O)CO4)C(=O)O2)C3 (stereo not shown) [Example 85]",
    "Units": "µg/mL",
    "MIC": 0.25
  },
  {
    "Compound": "C[C@@H](N)c1nc2c(F)c3c(c(F)c2n1C)CC(CN1CCC2(CC1)CN(c1cnc4c(n1)NC(=O)CO4)C(=O)O2)C3 (stereo partly shown) [Example 68]",
    "Units": "µg/mL",
    "MIC": 0.125
  },
  {
    "Compound": "CNCCn1nc2c(F)c3c(c(F)c2n1)CC(CN1CCC2(CC1)CN(c1cnc4c(n1)NC(=O)CO4)C(=O)O2)C3.O=CO [Example 117]",
    "Units": "µg/mL",
    "MIC": 0.25
  }
]

* * *

Form field: MIC (one value per entry).
- Tested on: Escherichia coli ATCC 25922
- Protocol notes: Minimal Inhibitory Concentration (MIC) determination, broth microdilution (CLSI M07-A10)
- Assay type: cell-based
- Run parameters: Escherichia coli, ATCC25922, strain Escherichia coli ATCC 25922, 18-24 hours at 35±2° C., lowest concentration for complete growth inhibition (no visible growth), read-out: Escherichia coli growth inhibition MIC
- Description: Minimal Inhibitory Concentration (MIC) Determination: The MIC of antibacterial compounds against multiple species and strains was determined using the broth microdilution method according to M07-A10 Clinical and Laboratory Standards Institute (CLSI) guidelines, using the appropriate broth medium. […] The MIC value of each compound, expressed as μg/mL, was determined as the lowest concentration required for complete growth inhibition (no visible growth). • [1] […]

[
  {
    "Molecule": "CNCCn1cnc2c(F)c3c(c(F)c21)CC(CN1CCC2(CC1)CN(c1cnc4c(n1)NC(=O)CO4)C(=O)O2)C3 (single isomer, unassigned) [Example 126]",
    "Units": "µg/mL",
    "MIC": 0.25
  },
  {
    "Molecule": "CNCc1nc2cc3c(c(F)c2o1)CC(CN1CCC2(CC1)CN(c1cnc4c(n1)NC(=O)CO4)C(=O)O2)C3.O=C(O)C(F)(F)F (stereo not drawn) [Example 22]",
    "Units": "µg/mL",
    "MIC": 0.25
  },
  {
    "Molecule": "CNCCc1nc2c(F)c3c(c(F)c2n1C)CC(CN1CCC2(CC1)CN(c1cnc4c(n1)NC(=O)CO4)C(=O)O2)C3.O=C(O)C(F)(F)F (stereo not drawn) [Example 20]",
    "Units": "µg/mL",
    "MIC": 0.25
  }
]

* * *

Form field: MIC (one value per entry).
- Test system: Escherichia coli ATCC 25922
- Protocol notes: Minimal Inhibitory Concentration (MIC) determination, broth microdilution (CLSI M07-A10)
- Type: cell-based
- Run parameters: Escherichia coli, ATCC25922, strain Escherichia coli ATCC 25922, 18-24 hours at 35±2° C., lowest concentration for complete growth inhibition (no visible growth), read-out: Escherichia coli growth inhibition MIC
Measured metric: MIC (mg/L)

[
  {
    "Compound": "CNCc1nc2c3c(c(F)cc2o1)CC(CN1CCC2(CC1)CN(c1cnc4c(n1)NC(=O)CO4)C(=O)O2)C3 (centres unmarked)",
    "Measured metric": "MIC",
    "Observed value": 0.125
  },
  {
    "Compound": "O=C1COc2ncc(N3CC4(CCN(CC5Cc6c(c(F)c7c(nnn7C7CNC7)c6F)C5)CC4)OC3=O)nc2N1.O=CO (single isomer, unassigned)",
    "Measured metric": "MIC",
    "Observed value": 0.25
  },
  {
    "Compound": "CN(C)CCn1nnc2c(F)c3c(cc21)CC(CN1CCC2(CC1)CN(c1cnc4c(n1)NC(=O)CO4)C(=O)O2)C3 (centres unmarked)",
    "Measured metric": "MIC",
    "Observed value": 0.125
  },
  {
    "Compound": "O=C1COc2ncc(N3CC4(CCN(CC5Cc6cc7c(nnn7C7CNC7)c(F)c6C5)CC4)OC3=O)nc2N1.O=CO (single isomer, unassigned)",
    "Measured metric": "MIC",
    "Observed value": 0.5
  },
  {
    "Compound": "O=C1COc2ncc(N3CC4(CCN(CC5Cc6cc7nnn(C8CNC8)c7c(F)c6C5)CC4)OC3=O)nc2N1.O=CO (single isomer, unassigned)",
    "Measured metric": "MIC",
    "Observed value": 0.25
  }
]
